- METHOD_DESCRIPTION: Compounds' toxicity, CellTiter 96 AQueous One Solution Cell Proliferation Assay
- Assay type: cell-based
- EXPERIMENTAL_CONDITIONS: human, HeLa-CD4-LTR-β-gal cells, CC50 (cytotoxic concentration 50%), 24 h
READOUT_TYPE: CC50 at 24 h

>>> result("O=C(O)c1cn(Cc2ccc(F)cc2)c2ccc(OCc3cccc(Cl)c3Cl)cc2c1=O")
"> 200 µM"
>>> result("O=C(O)c1cn(Cc2ccc(F)cc2)c2ccc(OCc3ccc4ccccc4c3)cc2c1=O")
"> 200 µM"
>>> result("O=C(O)c1cn(Cc2ccc(F)cc2)c2ccc(OCc3ccc4c(c3)OCO4)cc2c1=O")
"> 200 µM"
>>> result("CCOC(=O)c1cn(Cc2ccc(F)cc2)c2ccc(OCCCCc3ccccc3)cc2c1=O")
"> 200 µM"
>>> result("O=C(O)c1cn(Cc2ccc(F)cc2)c2ccc(OCc3ccc(Cl)c(Cl)c3)cc2c1=O")
"> 200 µM"
>>> result("CCOC(=O)c1cn(Cc2ccc(F)cc2)c2ccc(OCc3ccc(Cl)c(Cl)c3)cc2c1=O")
"20.6 µM"
>>> result("CCOC(=O)c1cn(Cc2ccc(F)cc2)c2ccc(OCc3ccccc3)cc2c1=O")
"> 100 µM"
>>> result("CCOC(=O)c1cn(Cc2ccc(F)cc2)c2ccc(C(C)=O)cc2c1=O")
"> 200 µM"
>>> result("CCOC(=O)c1cn(Cc2ccc(F)cc2)c2ccc(/C=C/C(=O)c3ccccc3)cc2c1=O")
"> 100 µM"
>>> result("CCOC(=O)c1cn(Cc2ccc(F)cc2)c2ccc(OCc3cccc(Cl)c3Cl)cc2c1=O")
"21.6 µM"
